- Test system: .221A2.1 peptide-loaded target cells and cells expressing endogenous antigen
- measurement-notes: Primary in vitro CTL induction with peptide-pulsed DC, CTL lytic activity by 51Cr release
- Assay type: cell-based, human
- measurement-context: immunogenicity, CTL recognition of the peptide, positive/tested
measurement-label: A2 peptide

CC[C@H](C)[C@H](NC(=O)[C@H](CC(=O)O)NC(=O)[C@H](Cc1ccccc1)NC(=O)[C@H](CC(C)C)NC(=O)[C@H](C)N)C(=O)N[C@@H](CCC(=O)O)C(=O)N[C@@H](CO)C(=O)N[C@@H](CCCCN)C(=O)N[C@H](C(=O)O)C(C)C [Peptide 1129.08]
2/2
CC(C)C[C@H](NC(=O)[C@H](C)N)C(=O)NCC(=O)N[C@H](C(=O)N[C@H](C(=O)N[C@@H](CS)C(=O)N[C@@H](Cc1ccc(O)cc1)C(=O)N[C@@H](C)C(=O)O)[C@@H](C)O)[C@@H](C)O [Peptide 1419.01]
1/2
CC(C)C[C@H](NC(=O)[C@H](CC(C)C)NC(=O)[C@H](Cc1ccccc1)NC(=O)[C@H](Cc1ccccc1)NC(=O)CNC(=O)CNC(=O)[C@H](C)NC(=O)[C@H](CC(C)C)NC(=O)[C@@H](N)C(C)C)C(=O)O [Peptide 1126.10]
1/2
CC(C)C[C@H](NC(=O)[C@H](CCC(=O)O)NC(=O)[C@H](CCCCN)NC(=O)[C@H](C)NC(=O)[C@H](CC(C)C)NC(=O)[C@@H](N)C(C)C)C(=O)N[C@@H](CCCCN)C(=O)N[C@@H](Cc1ccccc1)C(=O)N[C@H](C(=O)O)C(C)C [Peptide 1097.17]
1/3

Ask: Can you look up A2 peptide on .221A2.1 peptide-loaded target cells and cells expressing endogenous antigen for CC(C)C[C@H](NC(=O)[C@@H](N)C(C)C)C(=O)N[C@H](C(=O)N[C@@H](Cc1c[nH]cn1)C(=O)N1CCC[C@H]1C(=O)N[C@@H](CCC(N)=O)C(=O)N[C@@H](Cc1c[nH]c2ccccc12)C(=O)N[C@H](C(=O)N[C@@H](CC(C)C)C(=O)N[C@H](C(=O)N[C@H](C(=O)O)C(C)C)[C@@H](C)O)C(C)C)C(C)C [Peptide 1419.11] ?
Result: 2/2
